# experimental-system: T1, CD30 on CD30-expressing tumor cell lines (HH, MJ, H9) (UniProt P28908 19-595)
# T1 sequence (looked up): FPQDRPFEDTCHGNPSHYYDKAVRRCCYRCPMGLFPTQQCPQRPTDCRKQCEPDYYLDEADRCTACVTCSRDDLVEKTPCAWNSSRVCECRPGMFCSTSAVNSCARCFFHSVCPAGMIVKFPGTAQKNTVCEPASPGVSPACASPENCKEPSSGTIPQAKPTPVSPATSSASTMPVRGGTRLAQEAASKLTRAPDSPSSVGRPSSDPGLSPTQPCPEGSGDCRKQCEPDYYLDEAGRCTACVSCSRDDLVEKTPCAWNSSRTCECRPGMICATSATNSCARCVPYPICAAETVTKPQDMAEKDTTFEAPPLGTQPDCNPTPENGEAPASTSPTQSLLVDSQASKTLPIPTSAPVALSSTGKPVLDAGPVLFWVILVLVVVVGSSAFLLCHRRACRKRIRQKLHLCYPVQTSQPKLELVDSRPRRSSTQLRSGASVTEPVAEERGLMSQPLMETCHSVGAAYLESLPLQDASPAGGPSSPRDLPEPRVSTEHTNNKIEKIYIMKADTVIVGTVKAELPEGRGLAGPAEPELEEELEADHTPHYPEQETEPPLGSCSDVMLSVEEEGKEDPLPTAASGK
# method-notes: cell-based or functional assay
quantity: % MJ cell lysis E:T = 1:1 (LDH assay, CAR T cells) (%)
Your answer is read as %, so omit the unit and give the number.

Ask: Which % MJ cell lysis E:T = 1:1 (LDH assay, CAR T cells) is reported for this binder? AS48463VH4bbz CAR (other) EVQLLESGGGLVQPGGSLRLSCAASGFTFANSDMGWYRQAPGKGCELVSIISSHGGTTYYVDSVKGRFTISRDNSKNTLYLQMNSLRAEDTAVYYCVADPRSNCRGGYCCGYWGQGTLVTVSSTTTPAPRPPTPAPTIASQPLSLRPEACRPAAGGAVHTRGLDFACDIYIWAPLAGTCGVLLLSLVITLYCKRGRKKLLYIFKQPFMRPVQTTQEEDGCSCRFPEEEEGGCELRVKFSRSADAPAYKQGQNQLYNELNLGRREEYDVLDKRRGRDPEMGGKPRRKNPQEGLYNELQKDKMAEAYSEIGMKGERRRGKGHDGLYQGLSTATKDTYDALHMQALPPR
Result: 67

Ask: Which % MJ cell lysis E:T = 1:1 (LDH assay, CAR T cells) is reported for this binder? AS48542VH5bbz CAR (other) EVQLVESGGGLVQPGGSLRLSCATSAFTFDGPDMAWYRQAPGKGCELVSIISADGRTYYADSVKGRFTISRDNSKNTVYLQMNSLRAEDTAVYYCALDPRKNCRGGYCCANWGQGTLVTVSSTTTPAPRPPTPAPTIASQPLSLRPEACRPAAGGAVHTRGLDFACDIYIWAPLAGTCGVLLLSLVITLYCKRGRKKLLYIFKQPFMRPVQTTQEEDGCSCRFPEEEEGGCELRVKFSRSADAPAYKQGQNQLYNELNLGRREEYDVLDKRRGRDPEMGGKPRRKNPQEGLYNELQKDKMAEAYSEIGMKGERRRGKGHDGLYQGLSTATKDTYDALHMQALPPR
Result: 65

Ask: Which % MJ cell lysis E:T = 1:1 (LDH assay, CAR T cells) is reported for this binder? AS47863VH4bbz CAR (other) EVQLVESGGGLVQPGGSLRLSCAASGSTFGDSDMGWYRQAPGKGCELVSIISSDGRTYYVDSVKGRFTISQDNSKNTLYLQMNSLRAEDTAVYYCAADLRQYCRDGRCCGYWGQGTLVTVSSTTTPAPRPPTPAPTIASQPLSLRPEACRPAAGGAVHTRGLDFACDIYIWAPLAGTCGVLLLSLVITLYCKRGRKKLLYIFKQPFMRPVQTTQEEDGCSCRFPEEEEGGCELRVKFSRSADAPAYKQGQNQLYNELNLGRREEYDVLDKRRGRDPEMGGKPRRKNPQEGLYNELQKDKMAEAYSEIGMKGERRRGKGHDGLYQGLSTATKDTYDALHMQALPPR
Result: 57
